Every entry's value here was drawn from the nanobody polyreactivity screen of Harvey et al. (2022).

Assay: yeast display, Sf9 membrane polyspecificity reagent, FACS + sequencing; frameworks hold sequencing errors

construct.sequence: QVQLVESGGGLVQAGGSLRLSCAASGSTFVKNAMGWYRQAPGKERELVAAISYRGGRTYYADSVKGRYTISRDNAKNTVYLQMNSLKPEDTAVYYCNARYRTPSFIRMGYWGQGTQVTVSS
polyreactivity (PSR sort gate): high polyreactivity

construct.sequence: QVQLVESGGGLVQAGGSLRLSCAASGRTFLRYAMGWYRQAPGKERELVAAISWSGGRTYYADSVKGRFTISRDNAKNTVYLQMNSLKPEDTAVYYCNKVVLYGAHYYYWGQGTQVTVSS
polyreactivity (PSR sort gate): high polyreactivity

construct.sequence: QVQLVESGGGLVQAGGSLRLSCAASGSIFGRNAKGWYRQAPRKERELVAAINSGGSTNYADSVKGRFTISRDNAKNTVYLQMNSLKPEDTAVYYCAARTYSSGRYYGYVAFYYWGQGTQVTVSS
polyreactivity (PSR sort gate): high polyreactivity
